study-system: T1, monkey GFRα3 expressed with a C-terminal myc-myc-hexahistidine tag (monkey (Mf), UniProt O60609 32-374 (human entry), limits assumed)
T1 construct: also called MfGFRα3-mmh; MfGFRα3-mmH
T1 chain: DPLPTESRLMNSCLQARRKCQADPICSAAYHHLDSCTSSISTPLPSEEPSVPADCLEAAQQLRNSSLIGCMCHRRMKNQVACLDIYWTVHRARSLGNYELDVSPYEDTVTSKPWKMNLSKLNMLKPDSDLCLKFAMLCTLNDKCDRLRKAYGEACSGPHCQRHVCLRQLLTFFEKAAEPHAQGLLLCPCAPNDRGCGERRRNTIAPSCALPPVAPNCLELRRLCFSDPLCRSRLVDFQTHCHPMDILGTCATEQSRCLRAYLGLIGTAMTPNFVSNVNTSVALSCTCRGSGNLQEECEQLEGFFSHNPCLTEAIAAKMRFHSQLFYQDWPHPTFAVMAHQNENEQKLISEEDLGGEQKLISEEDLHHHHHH
assay-info: SPR, Ab captured, 37C
quantity: koff (s⁻¹)
Give bare numbers, in s⁻¹.

Consider the reported koff for these binders:
• H1M2243N (antibody, V domains shown, chimeric, human variable and mouse constant domains (H1M)) VH: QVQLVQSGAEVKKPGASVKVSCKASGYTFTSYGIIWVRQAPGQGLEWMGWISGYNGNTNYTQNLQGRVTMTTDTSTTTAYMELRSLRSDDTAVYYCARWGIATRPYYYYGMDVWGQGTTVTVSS VL: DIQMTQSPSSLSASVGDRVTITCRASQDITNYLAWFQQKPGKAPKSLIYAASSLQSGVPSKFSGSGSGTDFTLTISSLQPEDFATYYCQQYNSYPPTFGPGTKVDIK = 0.00275
• H1M2236N (antibody, V domains shown, chimeric, human variable and mouse constant domains (H1M)) VH: EVQLLESGGNLVQPGGSLRLSCAASGFTFSSYAMTWVRQAPGKGLEWVSTISGSGTSTYYADSVKGRFTISRDNSRDTVFLQMNSLRAEDTAVYYCSKPSALRFLHWLCMDVWGQGTLVTVSS VL: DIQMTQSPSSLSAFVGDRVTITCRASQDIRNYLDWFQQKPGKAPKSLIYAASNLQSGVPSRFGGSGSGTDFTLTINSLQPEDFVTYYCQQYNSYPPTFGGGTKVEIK = 0.00112

Reported koff ( H4H2345S (antibody, human IgG4, V domains shown, human IgG4 Fc (H4H)) VH: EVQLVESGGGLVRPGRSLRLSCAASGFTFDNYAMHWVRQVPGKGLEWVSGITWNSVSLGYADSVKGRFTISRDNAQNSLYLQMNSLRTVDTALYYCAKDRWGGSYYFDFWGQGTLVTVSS VL: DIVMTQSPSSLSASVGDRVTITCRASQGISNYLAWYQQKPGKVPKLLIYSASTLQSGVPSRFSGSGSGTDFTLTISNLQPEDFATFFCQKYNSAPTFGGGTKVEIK ) = 0.00353
